target: Nuclear receptor ROR-gamma (Homo sapiens, UniProt P51449); assay: Inverse agonist activity at N-terminal 6-His-tagged/APC-labeled human RORgammat LBD extracted from Escherichia coli assessed as inhibition of europium-labeled SRC-1 recruitment incubated for 3 hrs by TR-FRET analysis
Sequence (P51449 whole entry, the tested form may be a part): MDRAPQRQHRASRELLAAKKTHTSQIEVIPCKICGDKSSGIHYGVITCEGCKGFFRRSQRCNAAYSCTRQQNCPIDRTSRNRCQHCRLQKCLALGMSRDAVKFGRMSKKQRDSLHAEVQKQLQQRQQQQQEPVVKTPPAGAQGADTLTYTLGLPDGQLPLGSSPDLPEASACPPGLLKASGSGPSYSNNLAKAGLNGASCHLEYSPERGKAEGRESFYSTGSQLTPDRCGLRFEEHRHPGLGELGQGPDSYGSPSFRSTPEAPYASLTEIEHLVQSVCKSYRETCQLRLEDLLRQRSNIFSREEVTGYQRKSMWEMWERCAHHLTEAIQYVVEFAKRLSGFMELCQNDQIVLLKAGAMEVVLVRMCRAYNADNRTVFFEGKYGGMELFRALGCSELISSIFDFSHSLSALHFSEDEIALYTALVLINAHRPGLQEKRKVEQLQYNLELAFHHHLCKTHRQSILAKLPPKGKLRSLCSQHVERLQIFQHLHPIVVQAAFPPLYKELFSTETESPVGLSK
MEASURED_METRIC: log10(IC50) (log10 of the value in nM)

>>> df
                                    molecule   val
 0  CCc1ccc2c(c1)CCC(CC)N2S(=O)(=O)c1ccc(OCc2ccncn2)c(CO)c1 (racemic)  2.48
 1  CCc1ccc2c(c1)CCC(CC)N2S(=O)(=O)c1ccc(OCCS(C)(=O)=O)c(CO)c1 (racemic)  3.16
 2  CC[C@@H]1CCc2cc(C(C)C)ccc2N1S(=O)(=O)c1ccc(OCC2CCOCC2)c(CO)c1  0.48
 3  CCc1ccc2c(c1)CCCN2S(=O)(=O)c1ccc(OCC2CCOCC2)c(CO)c1  2.93
 4  CCc1ccc2c(c1)CCC(CC)N2S(=O)(=O)c1ccc(OC2CN(C(C)=O)C2)c(CO)c1 (racemic)  3.25
 5  CCc1cnc2c(c1)CCC(CC)N2S(=O)(=O)c1ccc(OCC2CCOCC2)c(CO)c1 (racemic)  1.54
 6  CCc1ccc2c(c1)CCC(CC(C)C)N2S(=O)(=O)c1ccc(OCC2CCOCC2)c(CO)c1 (racemic)  1.32
 7  CCc1ccc2c(c1)CCC(CO)N2S(=O)(=O)c1ccc(OCC2CCOCC2)c(CO)c1 (racemic)  3.53
 8  CCc1ccc2c(c1)CCC(C(C)C)N2S(=O)(=O)c1ccc(OCC2CCOCC2)c(CO)c1 (racemic)  0.30
 9  CCc1ccc2c(c1)CCC(C)(C)N2S(=O)(=O)c1ccc(OCC2CCOCC2)c(CO)c1  2.49
10  CCC1CCc2cc(CC(C)(F)F)ccc2N1S(=O)(=O)c1ccc(OCC2CCOCC2)c(CO)c1 (racemic)  1.20
11  CCc1ccc2c(c1)CCC(CC)N2S(=O)(=O)c1ccc(C(O)CC2CCOCC2)c(CO)c1 (racemic)  2.30
